Target: Induced myeloid leukemia cell differentiation protein Mcl-1 (Homo sapiens) (UniProt Q07820)
Sequence (Q07820 whole entry, looked up): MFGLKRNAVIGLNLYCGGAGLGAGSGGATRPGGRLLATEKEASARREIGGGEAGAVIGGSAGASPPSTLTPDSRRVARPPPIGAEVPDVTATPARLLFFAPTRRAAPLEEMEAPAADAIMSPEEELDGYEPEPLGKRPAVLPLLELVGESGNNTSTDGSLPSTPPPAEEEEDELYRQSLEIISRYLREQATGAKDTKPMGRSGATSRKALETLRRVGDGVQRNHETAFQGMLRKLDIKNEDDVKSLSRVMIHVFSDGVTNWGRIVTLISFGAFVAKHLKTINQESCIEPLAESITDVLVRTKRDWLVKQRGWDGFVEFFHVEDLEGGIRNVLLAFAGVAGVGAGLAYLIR
Assay: disruptors of Mcl-1 and Bid BH3 peptide – biochemical, TR-FRET, 1536-well, primary screen (AID 1021);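 further: His-tagged Mcl-1 with europium anti-His antibody binding Bid BH3 peptide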
Conditions: TR-FRET Mcl-1/Bid-Dy647 peptide binding, at 21.7 µM
About 2,100 (0.95%) of roughly 220,000 compounds were called active.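 How the source made its calls: active means compounds that cut the binding signal by more than half at the single screening dose; inactive means the rest.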 Shown is part of a subset that was picked to be rich in actives.
Give one outcome, nothing more. List: active, inactive

MOLECULE | DISCRETE_LABEL
O=c1c2ccccc2nnn1CSc1nnnn1-c1ccccc1 | inactive
CCOC(=O)c1c(NC(=S)NC)sc2c1CCCC2 | inactive

Short answer needed: outcome of this test for "COc1ccc(C(=O)Nc2cccnc2)cc1C(=O)Nc1cccnc1" ?
inactive

Repeat for the following molecule: C#CCOCCOCCOCCNc1nc(N2CCN(C(=O)[C@H](Cc3ccc(O)cc3)n3cc(C(N)CC(C)C)nn3)CC2)nc(N2CCN(C(=O)[C@H](CCC(=O)O)n3cc(C(N)[C@H](C)CC)nn3)CC2)n1 (stereo partly specified)
inactive

Repeat for the following molecule: "O=S(=O)(c1cccc(-c2nnc3n2CCCCC3)c1)N1CCOCC1"
inactive

Repeat for the following molecule: "Cc1ccc(N=Nc2c(C)[nH]n(-c3ccccc3)c2=O)cc1"
inactive

Repeat for the following molecule: C=CCOc1ccc(/C=N/NC(=O)C(C)Sc2ccccn2)cc1OCC (stereo unspecified)
inactive

Repeat for the following molecule: "COC(=O)c1c(C(=O)OC)c2n(c1C)CCS2"
inactive

Repeat for the following molecule: C#CCOCCOCCOCCNc1nc(N2CCN(C(=O)[C@H](CCC(=O)O)n3cc(C(N)CO)nn3)CC2)nc(N2CCN(C(=O)[C@H](Cc3ccc(O)cc3)n3cc(C(N)[C@H](C)CC)nn3)CC2)n1 (stereo partly specified)
active

Repeat for the following molecule: "O=C(CN1CCN(Cc2ccccc2)CC1)NC(c1ccccc1)c1ccccc1"
inactive

Repeat for the following molecule: "CCN(CC)CCCN=C(N)N"
inactive
